Please go through the items and note down their pIC50.
Biological target: KRasG12C (M1-K169, biotinylated on the N-terminus) (Homo sapiens (Human), UniProt P01116, G12C)
Assay: Covalent competition assay: scintillation proximity assay (SPA) quantifying covalent modification of KRASG12C
Settings: competition with radiolabeled covalent probe (Compound B/Compound A), 2 hours incubation, 10 nM KRasG12C
pIC50: −log10 of the molar value.

Input: # query: pIC50 of entry C=CC(=O)N1CC2(CC(n3nc(N4CCN(C(=O)C(F)F)CC4(C)C)c(-c4c(Cl)c(C)cc5[nH]ncc45)c3C)C2)C1 (single isomer, unassigned) [Example 128a]
Output: < 4.30

Input: # query: pIC50 of entry C=CC(=O)N1CC2(CC(n3nc(N4CCN(C[C@@H]5COCCO5)C[C@]4(C)CC)c(-c4c(Cl)c(C)cc5[nH]ncc45)c3C#N)C2)C1
Output: > 8.30

Proceed to the following item.
Input: # query: pIC50 of entry C=CC(=O)N1CC2(CC(n3nc(N4CCN(C5COC5)C[C@@]4(C)COC)c(-c4c(Cl)c(C)cc5[nH]ncc45)c3C)C2)C1 (single isomer, unassigned) [Example 148a]
Output: < 5.30

Numbers sourced from patent US20240317721A1.
